All values here come from paper PMC9546217.

EXPERIMENTAL ENDPOINT: melting point

Here are 2 compounds together with their reported answers.
NNS(=O)(=O)c1cccc2c1OCCO2    101 to 103 °C
NNS(=O)(=O)C1(F)C=CC(c2ccccc2)=CC1 (stereo not drawn)    164 to 169 °C

// query I have this compound here, NNS(=O)(=O)c1ccc([N+](=O)[O-])cc1 [1b, 4-Nitrobenzenesulfonohydrazide] , and I need its recorded melting point.
// result 149 to 152 °C

* * *

The entries below come with measured Selectivity index SI5 values attached.
- Test system: L. donovani strain 9515 amastigotes
- EXPERIMENT: Anti-amastigote assay (intramacrophage, THP-1 host, resazurin)
- Format: cell-based
- MEASUREMENT PARAMETERS: L. donovani 9515: IC50 Vero/IC50 amastigote
Please reply with the number alone, leaving off any unit.

O=Cc1ccc([N+](=O)[O-])o1 [NFA, 5‐nitro‐2‐furaldehyde, reference compound]    3
O=[N+]([O-])c1ccc(/C=N/NS(=O)(=O)c2ccc(-c3ccccc3)cc2)o1    3

// query Reported Selectivity index SI5, molecule CC(C)(C)c1ccc(S(=O)(=O)N/N=C/c2ccc([N+](=O)[O-])o2)cc1 : ____
// result 3

// query Also O=[N+]([O-])c1ccc(/C=N/NS(=O)(=O)c2cccc3c2OCCO3)o1 ?
// result 5

* * *

- System: Vero cells
- EXPERIMENT: Basal cytotoxicity, resazurin assay
- MEASUREMENT PARAMETERS: read-out: Cytotoxicity, IC50 ± SD, Vero; Vero cells
EXPERIMENTAL ENDPOINT: IC50 (nM)
Answer format: numeric, nM implied, no suffix.

// query Item: CC[C@H]1CN2CCc3cc(OC)c(OC)cc3[C@@H]2C[C@@H]1C[C@H]1NCCc2cc(OC)c(OC)cc21 [EM, emetine, reference compound] Test system: Vero cells Read-out: IC50 Value: ?
// result 80

* * *

- Tested on: L. donovani strain 1S amastigotes
- EXPERIMENT: Anti-amastigote assay (intramacrophage, THP-1 host, resazurin)
- Assay type: cell-based
- MEASUREMENT PARAMETERS: L. donovani 1S: IC50 promastigote/IC50 amastigote
Listed next: entries and their corresponding Specificity index SpI2.
// print number alone

Solved cases (3 shown):
O=[N+]([O-])c1ccc(/C=N/NS(=O)(=O)c2cccc3c2OCCO3)o1    1.45
NC(=O)N/N=C/c1ccc([N+](=O)[O-])o1 [NFZ, nitrofurazone, reference compound]    2.62
CC(C)(C)c1ccc(S(=O)(=O)N/N=C/c2ccc([N+](=O)[O-])o2)cc1    0.83

Next molecule, please.
// query # Specificity index SpI2 lookup, item O=[N+]([O-])c1ccc(/C=N/NS(=O)(=O)c2ccc(-c3ccccc3)cc2)o1
// result 0.49

* * *

- EXPERIMENT: Cytotoxicity on differentiated host THP-1 macrophages, resazurin assay
- Format: cell-based, human
- MEASUREMENT PARAMETERS: human, PMA-differentiated THP-1 macrophages, read-out: Cytotoxicity, IC50 ± SD, THP‐1
EXPERIMENTAL ENDPOINT: IC50 at 72 h

CC(C)c1ccc(S(=O)(=O)N/N=C/c2ccc([N+](=O)[O-])o2)cc1 [2d]    93.1 µM

// query IC50 at 72 h lookup needed for CC(C)(C)c1ccc(S(=O)(=O)N/N=C/c2ccc([N+](=O)[O-])o2)cc1 [2f] , thanks.
// result 84.6 µM

// query O=C(N/N=C/c1ccc([N+](=O)[O-])o1)c1ccc(O)cc1 [NFX, Nifuroxazide, reference compound] ?
// result > 100 µM

// query Consider next the compound NC(=O)N/N=C/c1ccc([N+](=O)[O-])o1 [NFZ, nitrofurazone, reference compound] in the same way.
// result > 100 µM
